STUDY SYSTEM: Son of sevenless homolog 1 [564-1049]/GTPase KRas [G12C] (UniProt P01116+Q07889, G12C)
Construct: 564-1049
Sequence (P01116 whole entry G12C): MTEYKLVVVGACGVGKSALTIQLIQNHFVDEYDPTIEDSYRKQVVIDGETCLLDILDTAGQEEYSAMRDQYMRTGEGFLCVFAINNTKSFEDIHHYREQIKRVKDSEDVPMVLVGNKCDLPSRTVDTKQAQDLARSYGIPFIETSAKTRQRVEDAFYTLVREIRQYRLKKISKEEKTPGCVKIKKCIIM
Sequence (Q07889 564-1049): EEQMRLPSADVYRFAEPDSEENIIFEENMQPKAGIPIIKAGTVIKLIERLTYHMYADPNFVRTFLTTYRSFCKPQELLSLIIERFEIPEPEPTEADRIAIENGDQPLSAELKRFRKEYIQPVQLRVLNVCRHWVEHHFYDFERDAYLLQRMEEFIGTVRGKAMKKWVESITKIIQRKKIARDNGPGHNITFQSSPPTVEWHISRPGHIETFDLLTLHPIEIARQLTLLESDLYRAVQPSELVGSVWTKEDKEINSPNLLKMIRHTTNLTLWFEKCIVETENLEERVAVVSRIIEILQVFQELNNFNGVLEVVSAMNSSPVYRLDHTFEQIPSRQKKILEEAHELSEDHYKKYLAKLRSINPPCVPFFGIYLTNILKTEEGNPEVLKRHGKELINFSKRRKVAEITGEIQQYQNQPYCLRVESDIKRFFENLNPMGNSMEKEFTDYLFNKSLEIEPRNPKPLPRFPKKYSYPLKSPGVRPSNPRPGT
MEASUREMENT PROTOCOL: Evaluation of Inhibitory Activity of Compounds on KRAS G12C Nucleotide (GDP-GTP) Exchange Reaction
Reported log10 IC50 by item:
Scale type: logarithmic (base 10). Underlying IC50 unit: nM.

Exercise: Reported log10 IC50 for `C/C=C/C(=O)N1CC(NC(=O)c2c(C)nc(CNc3n[nH]c4cc(Cl)c(C(C)(C)C)cc34)n2C(C)C)C1` : what is it?
Solution: 3.42

Exercise: Next: `C=CC(=O)N1CC(NC(=O)c2c(Cl)nc(CNc3n[nH]c4cc(Cl)c(C(C)(C)C)cc34)n2C2CCN(C)CC2)C1`
Solution: 0.70

Exercise: Then this compound: `C=CC(=O)N1C[C@@H](C)[C@@H](NC(=O)c2c(Cl)nc(CNc3n[nH]c4cc(Cl)c(C(C)(C)C)cc34)n2C)C1`
Solution: 1.30

Exercise: Another compound to look at: `C=CC(=O)N1CC(NC(=O)c2c(Cl)nc(CNc3n[nH]c4cc(Cl)c(C(C)(C)C)cc34)n2[C@H]2C[C@H](C)CC[C@H]2C(C)C)C1`
Solution: 1.18

Exercise: // same read-out, input: `C=CC(=O)N1CC[C@@H](NC(=O)c2c(Cl)nc(CNc3n[nH]c4cc(Cl)c(C(C)(C)C)cc34)n2C)C1`
Solution: 1.72

Exercise: Now consider C=CC(=O)N1CC(NC(=O)c2cnc(C(C)Nc3n[nH]c4cc(Cl)c(C(C)(C)C)cc34)n2C)C1 (centres undefined) .
Solution: 3.19

Exercise: Repeat with `C=CCN1CC[C@@H](n2c(CNc3n[nH]c4cc(Cl)c(C(C)(C)C)cc34)nc(Cl)c2C(=O)NC2CN(C(=O)C=C)C2)C1`
Solution: 0.95

Exercise: Same thing, different compound: C=CC(=O)N1CC(NC(=O)c2c(C)nc(CNc3n[nH]c4cc(Cl)c(C(C)(C)C)cc34)n2C(C)CC)C1 (centres undefined)
Solution: 1.49

Exercise: Check `C=CC(=O)N1CC(NC(=O)c2c(Cl)nc(CNc3n[nH]c4cc(Cl)c(C(C)(C)C)cc34)n2C)C1` too.
Solution: 0.78

Exercise: Follow-up item: `C=CC(=O)N1CC(NC(=O)c2cnc(CNc3n[nH]c4cc(Cl)c(C(C)(C)C)nc34)n2C)C1`
Solution: 1.43

Exercise: Record: C=CC(=O)N1CC(NC(=O)c2c(C(F)F)nc(CNc3n[nH]c4cc(Cl)c(C(C)(C)C)cc34)n2C2CCN(C)C2)C1 (centres undefined)
Solution: 0.85

Exercise: Likewise for `C=CC(=O)N1CC(NC(=O)c2c(C)nc(CNc3n[nH]c4cc(Cl)c(C(C)(C)C)cc34)n2C2CC2)C1` ?
Solution: 0.85

Exercise: Further, for `C=CC(=O)N1CC(NC(=O)c2c(C)nc(CNc3n[nH]c4cc(Cl)c(C(C)(C)C)cc34)n2CCCC)C1` ?
Solution: 1.08

Exercise: Also check `C=CC(=O)N1CC(NC(=O)c2c(Cl)nc(CNc3n[nH]c4cc(Cl)c(C(C)(C)C)cc34)n2C2CCOCC2)C1`
Solution: 0.85

Exercise: Also, `C=CC(=O)N1CC(NC(=O)c2c(Cl)nc(CNc3n[nH]c4cc(Cl)c(C(C)(C)C)cc34)n2[C@@H]2CCN(C3COC3)C2)C1` please.
Solution: 0.70

Exercise: `C=CC(=O)N1CC(NC(=O)c2c(Cl)nc(CNc3n[nH]c4cc(Cl)c(C(C)(C)C)cc34)n2CC(F)F)C1` , same question.
Solution: 1.15
